test system: setaria viridis; assay: Herbicidal activity, pot culture method (primary and secondary screening test); format: in vivo; settings: primary screening, pot culture, 150 g/ha, sprayed at 3-leaf stage, result 15 days later
Labels assigned by herbicidal activity inhibition ratio (%), Setaria viridis range: low end: < 40%; middle: ≥ 40% and < 90%; high end: ≥ 90%

Record excerpt, results attached:
- Compound: "CC1CC(=O)C(C(=O)c2ccc3c(c2)c(=O)n(-c2ccc(Cl)cc2Cl)c(=O)n3C)=C(O)C1 (stereo not drawn)"
  Class Assignment: "high end"
- Compound: "Cn1c(=O)n(-c2ccc(F)cc2)c(=O)c2cc(C(=O)C3=C(O)CC(C)(C)CC3=O)ccc21"
  Class Assignment: "high end"
- Compound: "Cn1c(=O)n(-c2cccc(C(F)(F)F)c2)c(=O)c2cc(C(=O)C3=C(O)CCCC3=O)ccc21"
  Class Assignment: "middle"
- Compound: "Cn1c(=O)n(-c2cccc3ccccc23)c(=O)c2cc(C(=O)C3=C(O)CCCC3=O)ccc21"
  Class Assignment: "middle"

Hi there! Could you help me figure out the category for C#CCn1c(=O)n(-c2ccccc2C)c(=O)c2cc(C(=O)C3=C(O)CCCC3=O)ccc21 please?
low end

Hi there! Could you help me figure out the category for Cc1cccc(C)c1-n1c(=O)c2c(C)c(C(=O)C3=C(O)CCCC3=O)ccc2n(C)c1=O please?
high end

Hi there! Could you help me figure out the category for COc1ccc(-n2c(=O)c3cc(C(=O)C4=C(O)CCCC4=O)ccc3n(C)c2=O)cc1 please?
middle

Hi there! Could you help me figure out the category for Cc1ccccc1-n1c(=O)[nH]c2ccc(C(=O)C3=C(O)CCCC3=O)cc2c1=O please?
low end

Hi there! Could you help me figure out the category for Cc1cc(C)c(-n2c(=O)c3cc(C(=O)C4=C(O)CCCC4=O)ccc3n(C)c2=O)c(C)c1 please?
middle

Hi there! Could you help me figure out the category for Cn1c(=O)n(-c2cc(C(F)(F)F)ccc2Cl)c(=O)c2cc(C(=O)C3=C(O)CC(C)(C)CC3=O)ccc21 please?
low end

Hi there! Could you help me figure out the category for Cn1c(=O)n(-c2ccccc2C(F)(F)F)c(=O)c2cc(C(=O)C3=C(O)CC(C)(C)CC3=O)ccc21 please?
low end

Hi there! Could you help me figure out the category for COc1ccccc1-n1c(=O)c2cc(C(=O)C3=C(O)CC(C)(C)CC3=O)ccc2n(C)c1=O please?
middle

Hi there! Could you help me figure out the category for Cn1c(=O)n(-c2ccc(Cl)cc2Cl)c(=O)c2cc(C(=O)C3=C(O)CCCC3=O)ccc21 please?
high end

Hi there! Could you help me figure out the category for Cn1c(=O)n(-c2ccc(Cl)cc2)c(=O)c2cc(C(=O)C3=C(O)CCCC3=O)ccc21 please?
high end
